# assayed target: PCSK9 (Homo sapiens (Human))
# Sequence (Q8NBP7 153-692): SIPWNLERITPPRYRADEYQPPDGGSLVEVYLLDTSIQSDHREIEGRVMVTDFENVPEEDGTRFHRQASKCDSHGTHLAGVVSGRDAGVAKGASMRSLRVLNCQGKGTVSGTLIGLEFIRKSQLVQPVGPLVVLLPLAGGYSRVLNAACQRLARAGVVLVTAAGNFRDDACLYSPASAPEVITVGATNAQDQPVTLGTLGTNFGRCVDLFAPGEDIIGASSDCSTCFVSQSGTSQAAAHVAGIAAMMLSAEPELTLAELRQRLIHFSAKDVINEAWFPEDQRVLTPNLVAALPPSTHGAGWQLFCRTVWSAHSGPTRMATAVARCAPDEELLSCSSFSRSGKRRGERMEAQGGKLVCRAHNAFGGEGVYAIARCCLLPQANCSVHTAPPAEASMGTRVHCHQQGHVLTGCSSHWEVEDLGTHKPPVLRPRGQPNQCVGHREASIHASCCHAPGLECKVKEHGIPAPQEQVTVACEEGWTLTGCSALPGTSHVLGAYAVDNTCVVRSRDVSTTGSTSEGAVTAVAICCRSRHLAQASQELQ
# procedure summary: PCSK9 Alexa FRET Standard assay (displacement of AlexaFluor647 tagged cyclic peptide Reagent A)
# Assay type: binding
# details: PCSK9 Alexa FRET Standard assay, 0.5 nM PCSK9, 20 nM AF cyclic peptide Reagent A; read-out: IC50
Starred links: 1 amine or outer side, 2 acyl side, 3 side chain; linkers in the order of their positions; H or OH if unused. Positions of bridges follow the written chain, without caps; N, C: chain ends. Non-standard residues stand in square brackets, D forms with d. Residues, ends and D or L forms follow the SMILES beside them. Trp(5-F) = N[C@@H](Cc1c[nH]c2ccc(F)cc12)C(=O)O; Trp(7-aza) = N[C@@H](Cc1c[nH]c2ncccc12)C(=O)O; Asp(3,3-Me2) = CC(C)(C(=O)O)[C@H](N)C(=O)O; mXylylene = c1cc(C[*:1])cc(C[*:2])c1; αMeP = C[C@@]1(C(=O)O)CCCN1; Mpa = O=C(O)CCS
Hi there, I'd appreciate the recorded IC50 for every entry that follows.

{"compound": "COc1ccc(C[C@@H]2NC(=O)[C@H](C)NC(=O)[C@@H]3CCCCNc4cc(ccn4)C[C@H](NC(=O)[C@@H](C)NC(=O)[C@H](C)NC(=O)CCSCc4cccc(c4)CSC[C@@H](C(N)=O)NC(=O)[C@]4(C)CCCN4C2=O)C(=O)N[C@@H](Cc2c[nH]c4ccc(F)cc24)C(=O)N3)cc1", "observed value": "0.00011 to 0.1 µM"}

For every item below, please supply its IC50.
1. C[C@H]1NC(=O)[C@H](C(C)(C)C(=O)O)NC(=O)[C@H](Cc2c[nH]c3ccc(F)cc23)NC(=O)[C@H](Cc2c[nH]c3ccc(F)cc23)NC(=O)CNC(=O)[C@H](CCCCN)NC(=O)CCSCc2cccc(c2)CSC[C@@H](C(N)=O)NC(=O)[C@]2(C)CCCN2C(=O)[C@H](Cc2ccc(O)cc2)NC1=O [Compound 055] ([Mpa]KG[Trp(5-F)][Trp(5-F)][Asp(3,3-Me2)][dA]Y[αMeP]C-NH2; linker 1-10 via mXylylene)
2. C[C@@]12CCCN1C(=O)[C@H](Cc1c[nH]c3ncccc13)NC(=O)[C@H](Cc1cnc[nH]1)NC(=O)[C@H](CC(=O)O)NC(=O)[C@H](Cc1c[nH]c3ccc(F)cc13)NC(=O)[C@H](Cc1c[nH]c3ccc(F)cc13)NC(=O)CNC(=O)[C@H](CCCCN)NC(=O)CCSCc1cccc(c1)CSC[C@@H](C(N)=O)NC2=O [Compound 360] ([Mpa]KG[Trp(5-F)][Trp(5-F)]DH[Trp(7-aza)][αMeP]C-NH2; linker 1-10 via mXylylene)

Outgoing:
["21 to 50 µM", "0.1 to 1 µM"]

Origin of the recorded values: patent US11530244B2
